target: Full length IDOL (1–445) (UniProt Q8WY64)
procedure_text: SPR; Biacore S200; 6× His-tagged full-length IDOL immobilized on an NTA chip (~6000 RU), peptides as analytes; 10 mM HEPES, 300 mM NaCl, 1 mM TCEP, 0.05% Tween 20, 4% DMSO, pH 8.0; saturation at the highest concentrations not observed
property_name: Kd

• CTIFLL (cyclic backbone (cyclo-)) [cyclo-CTIFLL] = 20.9 µM
• CFFLYT (cyclic backbone (cyclo-)) [cyclo-CFFLYT] = 38.5 µM
